FYI, the data here is from patent US20240209086A1.

Target: canine CD3 on canine T cells (canine PBMC) (canine, UniProt P27597 22-202)
Sequence (P27597 22-202 limits assumed, chain 1 of 3): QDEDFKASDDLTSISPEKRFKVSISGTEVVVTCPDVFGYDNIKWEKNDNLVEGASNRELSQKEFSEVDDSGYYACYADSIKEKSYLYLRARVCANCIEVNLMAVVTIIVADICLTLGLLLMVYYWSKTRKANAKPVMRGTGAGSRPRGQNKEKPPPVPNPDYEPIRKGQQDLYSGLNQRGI
Sequence (chain, as listed by the source limits assumed, chain 2 of 3): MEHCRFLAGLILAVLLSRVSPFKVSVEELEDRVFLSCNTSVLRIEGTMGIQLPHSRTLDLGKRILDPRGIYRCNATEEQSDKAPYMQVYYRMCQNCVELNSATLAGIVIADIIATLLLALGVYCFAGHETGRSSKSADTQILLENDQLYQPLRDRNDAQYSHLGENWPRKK
Sequence (chain, as listed by the source limits assumed, chain 3 of 3): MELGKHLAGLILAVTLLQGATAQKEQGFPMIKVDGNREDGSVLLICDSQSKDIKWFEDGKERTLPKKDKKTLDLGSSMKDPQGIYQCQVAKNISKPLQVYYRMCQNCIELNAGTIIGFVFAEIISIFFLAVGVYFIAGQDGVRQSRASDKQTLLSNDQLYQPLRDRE
Assay: cell-based or functional assay
Label key: 1 means Ki67 Proliferation, Day 6, PB under 0.6; -1 means Ki67 Proliferation, Day 6, PB of 0.6 or more.

>  <binder>
PMX194 (monospecific anti-canine CD3, canine IgG-B effector function deficient Fc) (antibody, V domains shown) VH: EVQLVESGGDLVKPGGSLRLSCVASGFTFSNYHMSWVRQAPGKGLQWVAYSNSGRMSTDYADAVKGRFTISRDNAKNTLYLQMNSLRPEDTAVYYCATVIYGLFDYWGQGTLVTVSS VL: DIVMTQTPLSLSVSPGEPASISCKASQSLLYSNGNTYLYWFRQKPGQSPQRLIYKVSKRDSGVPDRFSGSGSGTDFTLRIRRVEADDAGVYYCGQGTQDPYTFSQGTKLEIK

>  <cat>
1

$$$$
>  <binder>
PMX200 (monospecific anti-canine CD3, canine IgG-B effector function deficient Fc) (antibody, V domains shown) VH: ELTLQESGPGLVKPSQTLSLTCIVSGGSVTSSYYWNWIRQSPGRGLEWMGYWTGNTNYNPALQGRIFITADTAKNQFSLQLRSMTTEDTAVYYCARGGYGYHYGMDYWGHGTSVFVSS VL: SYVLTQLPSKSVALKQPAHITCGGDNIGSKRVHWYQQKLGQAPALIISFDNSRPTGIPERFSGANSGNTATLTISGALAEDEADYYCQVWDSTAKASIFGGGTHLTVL

>  <cat>
-1

$$$$
>  <binder>
PMX163 (monospecific anti-canine CD3, canine IgG-B effector function deficient Fc) (antibody, V domains shown) VH: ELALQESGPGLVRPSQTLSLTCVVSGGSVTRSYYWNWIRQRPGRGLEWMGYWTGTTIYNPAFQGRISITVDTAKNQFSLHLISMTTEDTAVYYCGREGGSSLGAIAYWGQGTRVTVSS VL: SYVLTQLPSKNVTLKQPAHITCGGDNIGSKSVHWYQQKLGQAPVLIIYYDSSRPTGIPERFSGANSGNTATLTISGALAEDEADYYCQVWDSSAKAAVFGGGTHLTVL

>  <cat>
1

$$$$
>  <binder>
PMX157 (monospecific anti-canine CD3, canine IgG-B effector function deficient Fc) (antibody, V domains shown) VH: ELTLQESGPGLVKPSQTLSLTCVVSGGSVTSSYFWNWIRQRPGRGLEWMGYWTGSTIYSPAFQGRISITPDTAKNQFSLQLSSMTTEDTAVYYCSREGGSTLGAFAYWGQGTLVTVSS VL: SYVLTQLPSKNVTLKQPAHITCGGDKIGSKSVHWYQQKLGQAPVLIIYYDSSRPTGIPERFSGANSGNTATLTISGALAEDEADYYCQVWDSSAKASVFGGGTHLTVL

>  <cat>
1

$$$$
